- subject_of_test: Coagulation factor VII/tissue factor (Homo sapiens)
- experiment_description: Inhibition of human recombinant soluble tissue factor-factor 7a using H-D-Ile-Pro-Arg-pNA as substrate
pKi: −log10 of the molar value.
property_measured: pKi

In [3]: df
Out[3]:
                                   compound  property_measured  readout_value
0  CCOc1cc(C(Nc2ccc3nc(N)[nH]c3c2)C(=O)NS(=O)(=O)c2ccccc2)ccc1OC(C)C (stereo not given)                pKi           6.17
1  CCOc1cc(C(Nc2ccc3c(N)nccc3c2)C(=O)NS(=O)(=O)c2cccc(S(N)(=O)=O)c2)ccc1OC(C)C (stereo not given)                pKi           8.00
2  CCOc1cc(C(Nc2ccc3c(N)nccc3c2)C(=O)NS(=O)(=O)c2ccc(C)cc2)ccc1OC(C)C (stereo not given)                pKi           6.71
3  CCOc1cc(C(Nc2ccc3c(N)ncnc3c2)C(=O)NS(=O)(=O)c2ccccc2)ccc1OC(C)C (stereo not given)                pKi           6.41
4  CCOc1cc(C(Nc2ccc3cnccc3c2)C(=O)NS(=O)(=O)c2cccc(S(=O)(=O)NC)c2)ccc1OC(C)C (stereo not given)                pKi           6.60

* * *

- subject_of_test: Coagulation factor VII/tissue factor (Homo sapiens, UniProt P08709)
- Sequence (P08709 61-212 limits assumed): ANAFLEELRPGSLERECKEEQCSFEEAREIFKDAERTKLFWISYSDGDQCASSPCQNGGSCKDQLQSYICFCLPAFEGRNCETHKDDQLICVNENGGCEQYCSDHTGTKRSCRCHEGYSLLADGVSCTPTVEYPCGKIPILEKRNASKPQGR
- Sequence (P08709 213-466 limits assumed): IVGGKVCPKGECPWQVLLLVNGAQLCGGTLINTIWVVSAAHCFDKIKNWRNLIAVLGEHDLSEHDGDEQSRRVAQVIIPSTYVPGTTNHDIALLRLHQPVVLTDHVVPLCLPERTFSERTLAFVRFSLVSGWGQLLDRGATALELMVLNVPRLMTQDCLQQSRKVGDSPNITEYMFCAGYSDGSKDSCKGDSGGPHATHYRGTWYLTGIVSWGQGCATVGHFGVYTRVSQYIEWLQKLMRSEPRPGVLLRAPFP
- Sequence (P13726 33-295 partner limits assumed): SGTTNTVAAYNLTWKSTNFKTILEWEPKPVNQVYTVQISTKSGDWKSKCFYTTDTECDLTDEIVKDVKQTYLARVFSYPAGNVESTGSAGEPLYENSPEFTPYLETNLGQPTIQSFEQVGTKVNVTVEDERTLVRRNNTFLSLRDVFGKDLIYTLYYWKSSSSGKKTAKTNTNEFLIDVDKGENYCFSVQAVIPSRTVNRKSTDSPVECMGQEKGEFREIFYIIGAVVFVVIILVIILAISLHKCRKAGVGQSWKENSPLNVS
- experiment_description: Inhibition of human recombinant soluble tissue factor-factor 7a using H-D-Ile-Pro-Arg-pNA as substrate
The entries below come with measured log10 of Ki values attached.
property_measured: log10 of Ki (log10 of the value in nM)

In [3]: df
Out[3]:
                                    compound                           subject_of_test  property_measured  readout_value
 0  CCOc1cc(C(Nc2ccc3c(N)nccc3c2)C(=O)NS(=O)(=O)c2cccc(N)c2)ccc1OC(C)C (configuration not stated)  Coagulation factor VII/tissue factor (Homo sapiens, UniProt P08709)        log10 of Ki           1.68
 1  CCOc1cc(C(Nc2ccc3cnccc3c2)C(=O)NS(=O)(=O)c2ccc(S(C)(=O)=O)cc2)ccc1OC(C)C (configuration not stated)  Coagulation factor VII/tissue factor (Homo sapiens, UniProt P08709)        log10 of Ki           3.91
 2  CCOc1cc(C(Nc2ccc3cnccc3c2)C(=O)NS(=O)(=O)c2ccccc2)ccc1OC(C)C (configuration not stated)  Coagulation factor VII/tissue factor (Homo sapiens, UniProt P08709)        log10 of Ki           1.85
 3  CCOc1cc(C(Nc2ccc3c(N)nccc3c2)C(=O)NS(=O)(=O)c2ccc(O)cc2)ccc1OC(C)C (configuration not stated)  Coagulation factor VII/tissue factor (Homo sapiens, UniProt P08709)        log10 of Ki           0.85
 4  CCOc1cc(C(Nc2ccc3c(N)n[nH]c3c2)C(=O)NS(=O)(=O)c2ccccc2)ccc1OC(C)C (configuration not stated)  Coagulation factor VII/tissue factor (Homo sapiens, UniProt P08709)        log10 of Ki           3.46
 5  CCOc1cc(C(Nc2ccc3c(N)nccc3c2)C(=O)NS(=O)(=O)c2cccc(C(N)=O)c2)ccc1OC(C)C (configuration not stated)  Coagulation factor VII/tissue factor (Homo sapiens, UniProt P08709)        log10 of Ki           1.26
 6  CCOc1cc(C(Nc2ccc(C(=N)N)cc2)C(=O)NS(=O)(=O)c2ccccc2)ccc1OC(C)C (configuration not stated)  Coagulation factor VII/tissue factor (Homo sapiens, UniProt P08709)        log10 of Ki           0.11
 7  CCOc1cc(C(Nc2ccc3cnccc3c2)C(=O)NS(=O)(=O)c2ccccc2S(N)(=O)=O)ccc1OC(C)C (configuration not stated)  Coagulation factor VII/tissue factor (Homo sapiens, UniProt P08709)        log10 of Ki           1.86
 8  CCOc1cc(C(Nc2ccc3cnccc3c2)C(=O)NS(=O)(=O)c2ccccc2S(C)(=O)=O)ccc1OC(C)C (configuration not stated)  Coagulation factor VII/tissue factor (Homo sapiens, UniProt P08709)        log10 of Ki           1.08
 9  CCOc1cc(C(Nc2ccc3c(N)nccc3c2)C(=O)NS(=O)(=O)c2ccc(N)cc2)ccc1OC(C)C (configuration not stated)  Coagulation factor VII/tissue factor (Homo sapiens, UniProt P08709)        log10 of Ki           0.95
10  CCOc1cc(C(Nc2ccc3c(N)nccc3c2)C(=O)NS(=O)(=O)c2cccc(O)c2)ccc1OC(C)C (configuration not stated)  Coagulation factor VII/tissue factor (Homo sapiens, UniProt P08709)        log10 of Ki           1.41
11  CCOc1cc(C(Nc2ccc3c(N)noc3c2)C(=O)NS(=O)(=O)c2ccccc2)ccc1OC(C)C (configuration not stated)  Coagulation factor VII/tissue factor (Homo sapiens, UniProt P08709)        log10 of Ki           3.29
12  CCOc1cc([C@@H](Nc2ccc3cnccc3c2)C(=O)NS(=O)(=O)c2ccccc2)ccc1OC(C)C  Coagulation factor VII/tissue factor (Homo sapiens, UniProt P08709)        log10 of Ki           1.64
13  CCOc1cc(C(Nc2ccc3cnccc3c2)C(=O)NS(=O)(=O)c2cccc(S(=O)(=O)N(C)C)c2)ccc1OC(C)C (configuration not stated)  Coagulation factor VII/tissue factor (Homo sapiens, UniProt P08709)        log10 of Ki           2.89
14  CCOc1cc(C(Nc2ccc3cnccc3c2)C(=O)NS(=O)(=O)c2cccc(S(C)(=O)=O)c2)ccc1OC(C)C (configuration not stated)  Coagulation factor VII/tissue factor (Homo sapiens, UniProt P08709)        log10 of Ki           2.16
15  CCOc1cc([C@@H](Nc2ccc3cnccc3c2)C(=O)NS(=O)(=O)c2cccc(S(N)(=O)=O)c2)ccc1OC(C)C  Coagulation factor VII/tissue factor (Homo sapiens, UniProt P08709)        log10 of Ki           1.23
16  CCOc1cc(C(Nc2ccc3cnccc3c2)C(=O)NS(=O)(=O)c2cccc(S(N)(=O)=O)c2)ccc1OC(C)C (configuration not stated)  Coagulation factor VII/tissue factor (Homo sapiens, UniProt P08709)        log10 of Ki           1.51

* * *

Overview of reported pKi across a group of compounds:
- subject_of_test: Prothrombin (Homo sapiens, UniProt P00734)
pKi: −log10 of the molar value.
property_measured: pKi

                                   compound                           subject_of_test  reported_relation  readout_value
0  CCOc1cc(C(Nc2ccc3c(N)nccc3c2)C(=O)NS(=O)(=O)c2ccc(O)cc2)ccc1OC(C)C (centres undefined)  Prothrombin (Homo sapiens, UniProt P00734)                  <           4.89
1  CCOc1cc(C(Nc2ccc3c(N)nccc3c2)C(=O)NS(=O)(=O)c2ccc(C)cc2)ccc1OC(C)C (centres undefined)  Prothrombin (Homo sapiens, UniProt P00734)                  =           5.54
2  CCOc1cc(C(Nc2ccc3c(N)nccc3c2)C(=O)NS(=O)(=O)c2cccc(S(N)(=O)=O)c2)ccc1OC(C)C (centres undefined)  Prothrombin (Homo sapiens, UniProt P00734)                  <           4.89
3  CCOc1cc(C(Nc2ccc3c(N)nccc3c2)C(=O)NS(=O)(=O)c2ccccc2)ccc1OC(C)C (centres undefined)  Prothrombin (Homo sapiens, UniProt P00734)                  =           5.37

* * *

pKi: −log10 of the molar value.
For Prothrombin (Homo sapiens, UniProt P00734), measured pKi is reported for the entries below.
property_measured: pKi

>>> print(df.to_string())
                                   compound  reported_relation  readout_value
0  CCOc1cc(C(Nc2ccc3cnccc3c2)C(=O)NS(=O)(=O)c2cccc(S(=O)(=O)NC)c2)ccc1OC(C)C (stereo unspecified)                  <           4.89
1  CCOc1cc([C@@H](Nc2ccc3cnccc3c2)C(=O)NS(=O)(=O)c2ccccc2)ccc1OC(C)C                  <           4.89
2  CCOc1cc([C@@H](Nc2ccc3c(N)nccc3c2)C(=O)NS(=O)(=O)c2ccccc2)ccc1OC(C)C                  =           5.16
3  CCOc1cc(C(Nc2ccc3cnccc3c2)C(=O)NS(=O)(=O)c2ccccc2S(=O)(=O)CC)ccc1OC(C)C (stereo unspecified)                  =           5.03
4  CCOc1cc([C@@H](Nc2ccc3cnccc3c2)C(=O)NS(=O)(=O)c2cccc(S(N)(=O)=O)c2)ccc1OC(C)C                  <           4.89
5  CCOc1cc([C@@H](Nc2ccc3c(N)nccc3c2)C(=O)NS(=O)(=O)c2cccc(S(N)(=O)=O)c2)ccc1OC(C)C                  =           5.03
